The measured values listed here are drawn from patent US4522944A.

Assay: approximate acute toxicity (LD50)
Conditions: in vivo, po; mouse, per os, single administration of increasing doses, measured on the seventh day after treatment
quantityKind: LD50 at 168 h

O=C(Nc1ccccn1)c1cnc2scnn2c1=O | > 800 mg/kg

Sample `O=C(Nc1ccccn1)c1cnc2sc(-c3cccnc3)nn2c1=O` — what was its LD50 at 168 h? > 800 mg/kg
